- Study System: Type-2 angiotensin II receptor (Homo sapiens, UniProt P50052)
- Sequence (P50052 whole entry): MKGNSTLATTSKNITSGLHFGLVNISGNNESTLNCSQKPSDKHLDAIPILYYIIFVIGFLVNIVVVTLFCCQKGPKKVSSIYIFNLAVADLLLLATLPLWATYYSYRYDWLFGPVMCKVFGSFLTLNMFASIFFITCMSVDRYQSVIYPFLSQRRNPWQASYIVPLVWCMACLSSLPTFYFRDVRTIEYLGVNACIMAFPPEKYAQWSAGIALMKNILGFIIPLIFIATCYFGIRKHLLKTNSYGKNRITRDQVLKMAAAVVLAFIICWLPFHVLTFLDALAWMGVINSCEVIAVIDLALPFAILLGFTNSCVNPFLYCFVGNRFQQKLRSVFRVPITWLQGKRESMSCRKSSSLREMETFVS
- Method Notes: Binding affinity for angiotensin II AT-2 receptor
// NB: equality with 2 nM counts as Not met; only IC50 strictly below is Met

CCCc1nc(CC)c(C(=O)O)n1Cc1ccc(-c2ccccc2-c2nnn[nH]2)cc1 : Not met

Turning now to a further compound:
Dear reviewer, please state whether CCCc1nc(CC)c(C(=O)NCc2ccccc2[S+]([O-])c2ccccc2)n1Cc1ccc(-c2ccccc2S(=O)(=O)NC(=O)OCCC(C)C)cc1F (configuration not stated) has IC50 strictly beneath 2 nM.
Not met

----------
Target chain: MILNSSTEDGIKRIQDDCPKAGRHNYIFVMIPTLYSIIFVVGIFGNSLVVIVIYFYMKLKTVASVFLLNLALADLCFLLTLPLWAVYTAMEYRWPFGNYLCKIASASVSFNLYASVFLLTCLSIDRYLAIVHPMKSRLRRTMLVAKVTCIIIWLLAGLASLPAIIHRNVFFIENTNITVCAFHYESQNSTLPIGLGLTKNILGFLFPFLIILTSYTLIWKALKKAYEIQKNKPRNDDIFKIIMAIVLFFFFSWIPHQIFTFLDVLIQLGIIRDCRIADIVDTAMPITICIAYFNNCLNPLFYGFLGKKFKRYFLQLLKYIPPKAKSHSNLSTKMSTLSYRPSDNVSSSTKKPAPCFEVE
What pIC50 was measured for each of the following?
Answers are plain numbers, as −log10 of the molar value.

Worked set:
CCCCCOC(=O)NS(=O)(=O)c1ccccc1-c1ccc(Cn2c(CCC)nc(CC)c2C(=O)OCCC(=O)Nc2ccccc2)c(F)c1 : 10.00
CCCCN(Cc1ccccc1)C(=O)CCCOC(=O)c1c(CC)nc(CCC)n1Cc1ccc(-c2ccccc2S(=O)(=O)NC(=O)OCCC(C)C)cc1F : 9.70
CCCOC(=O)NS(=O)(=O)c1ccccc1-c1ccc(Cn2c(CCC)nc(CC)c2C(=O)OCc2ccccc2-c2ccsc2)c(F)c1 : 9.52
CCCc1nc(CC)c(C(=O)OCc2ccccc2-c2cccs2)n1Cc1ccc(-c2ccccc2S(=O)(=O)NC(=O)OCCC(C)C)cc1F : 9.10
CCCc1nc(CC)c(C(=O)OCCCS(=O)(=O)c2ccccc2)n1Cc1ccc(-c2ccccc2S(=O)(=O)NC(=O)OCCC(C)C)cc1F : 9.70

Hey, can you go through the list below and give me pIC50 for every item?
1. CCCc1nc(CC)c(C(=O)OCc2cccc(C(=O)c3ccccc3)c2)n1Cc1ccc(-c2ccccc2S(=O)(=O)NC(=O)OCCC(C)C)cc1F
2. CCCc1nc(CC)c(C(=O)OCC(=O)c2ccccc2)n1Cc1ccc(-c2ccccc2S(=O)(=O)NC(=O)OCCC(C)C)cc1F

[9.22, 10.00]

----------
- Study System: Type-1 angiotensin II receptor (Homo sapiens, UniProt P30556)
- Sequence (P30556 whole entry): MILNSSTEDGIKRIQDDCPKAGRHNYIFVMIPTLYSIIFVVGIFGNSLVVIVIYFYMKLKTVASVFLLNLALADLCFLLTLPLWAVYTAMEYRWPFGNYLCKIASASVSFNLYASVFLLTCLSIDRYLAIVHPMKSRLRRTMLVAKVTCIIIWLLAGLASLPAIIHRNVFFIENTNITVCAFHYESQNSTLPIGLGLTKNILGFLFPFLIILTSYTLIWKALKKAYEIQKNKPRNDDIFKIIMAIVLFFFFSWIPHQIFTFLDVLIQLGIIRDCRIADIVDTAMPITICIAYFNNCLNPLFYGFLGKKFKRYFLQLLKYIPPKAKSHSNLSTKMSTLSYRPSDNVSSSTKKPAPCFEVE
Task for the reader: assign each of the following compounds its reported pIC50.
Give bare numbers, as −log10 of the molar value.

CCCc1nc(CC)c(C(=O)OCc2ccccc2-c2ccccc2)n1Cc1ccc(-c2ccccc2-c2nnn[nH]2)cc1 : 8.52
CCCOC(=O)NS(=O)(=O)c1ccccc1-c1ccc(Cn2c(CCC)nc(CC)c2C(=O)OCc2cccc(C(=O)c3ccccc3)c2)c(F)c1 : 9.52

Next compound, please.
Item `CCCc1nc(CC)c(C(=O)OCc2ccccc2S(=O)(=O)c2ccccc2)n1Cc1ccc(-c2ccccc2S(=O)(=O)NC(=O)OCCC(C)C)cc1F` with Type-1 angiotensin II receptor (Homo sapiens, UniProt P30556) - pIC50?
9.40

----------
- Study System: Type-2 angiotensin II receptor (Homo sapiens, UniProt P50052)
- Sequence (P50052 whole entry): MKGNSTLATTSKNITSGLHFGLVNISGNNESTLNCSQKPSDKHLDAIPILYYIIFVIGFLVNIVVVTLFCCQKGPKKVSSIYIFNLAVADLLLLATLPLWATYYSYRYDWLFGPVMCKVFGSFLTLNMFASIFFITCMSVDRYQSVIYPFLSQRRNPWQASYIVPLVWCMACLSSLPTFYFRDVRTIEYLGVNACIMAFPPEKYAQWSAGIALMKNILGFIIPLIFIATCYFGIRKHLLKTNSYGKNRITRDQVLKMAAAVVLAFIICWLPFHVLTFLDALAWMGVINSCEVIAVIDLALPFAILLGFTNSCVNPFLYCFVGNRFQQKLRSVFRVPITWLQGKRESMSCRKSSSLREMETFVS
Measurement Type: pIC50
One number for each entry, as −log10 of the molar value.

CCCc1nc(CC)c(C(=O)OCCCN2C(=O)c3ccccc3C2=O)n1Cc1ccc(-c2ccccc2S(=O)(=O)NC(=O)OCCC(C)C)cc1F : 8.52
CCCOC(=O)NS(=O)(=O)c1ccccc1-c1ccc(Cn2c(CCC)nc(CC)c2C(=O)OCc2ccccc2-c2cccs2)c(F)c1 : 8.52

Entry `CCCc1nc(CC)c(C(=O)OCc2ccccc2C(=O)C(C)(C)C)n1Cc1ccc(-c2ccccc2S(=O)(=O)NC(=O)OCCC(C)C)cc1F` : reported pIC50 = ?
8.52

----------
Protein target, amino acids: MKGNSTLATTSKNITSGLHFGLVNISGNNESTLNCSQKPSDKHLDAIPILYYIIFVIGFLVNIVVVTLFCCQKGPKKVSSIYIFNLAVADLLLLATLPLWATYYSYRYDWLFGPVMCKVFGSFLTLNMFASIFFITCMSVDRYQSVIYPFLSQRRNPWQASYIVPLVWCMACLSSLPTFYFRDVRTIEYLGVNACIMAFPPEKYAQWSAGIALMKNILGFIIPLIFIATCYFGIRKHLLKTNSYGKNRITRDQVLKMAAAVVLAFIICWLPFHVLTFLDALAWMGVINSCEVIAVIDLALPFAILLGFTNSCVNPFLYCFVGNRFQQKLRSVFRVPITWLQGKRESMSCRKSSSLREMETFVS
Hi! Just check whether IC50 is below 2 nM. Below gives YES, equal or above gives NO.

Please check: IC50 for `CCCCN(CCCC)C(=O)CCCOC(=O)c1c(CC)nc(CCC)n1Cc1ccc(-c2ccccc2-c2nnn[nH]2)cc1` , strictly under 2 nM or not?
NO

Field: below-cutoff. Rule: recorded IC50 strictly less than 2 nM. Subject: `CCCc1nc(CC)c(C(=O)OCc2ccc(-c3ccccc3)cc2)n1Cc1ccc(-c2ccccc2-c2nnn[nH]2)cc1`
NO

Hello, is IC50 of the following molecule strictly smaller than 2 nM? `CCCc1nc(CC)c(C(=O)OCc2ccccc2-c2ccccc2)n1Cc1ccc(-c2ccccc2S(=O)(=O)NC(=O)OCCC(C)C)cc1F`
NO

Given the entry `CCCc1nc(CC)c(C(=O)OCc2ccccc2C(=O)c2ccccc2)n1Cc1ccc(-c2ccccc2S(=O)(=O)NC(=O)OCCC(C)C)cc1F` , would its reported IC50 be below 2 nM?
YES

Is it true that IC50 reported for `CCCCN(Cc1ccccc1)C(=O)CCCOC(=O)c1c(CC)nc(CCC)n1Cc1ccc(-c2ccccc2-c2nn[nH]n2)cc1` is less than 2 nM?
NO

----------
Target chain: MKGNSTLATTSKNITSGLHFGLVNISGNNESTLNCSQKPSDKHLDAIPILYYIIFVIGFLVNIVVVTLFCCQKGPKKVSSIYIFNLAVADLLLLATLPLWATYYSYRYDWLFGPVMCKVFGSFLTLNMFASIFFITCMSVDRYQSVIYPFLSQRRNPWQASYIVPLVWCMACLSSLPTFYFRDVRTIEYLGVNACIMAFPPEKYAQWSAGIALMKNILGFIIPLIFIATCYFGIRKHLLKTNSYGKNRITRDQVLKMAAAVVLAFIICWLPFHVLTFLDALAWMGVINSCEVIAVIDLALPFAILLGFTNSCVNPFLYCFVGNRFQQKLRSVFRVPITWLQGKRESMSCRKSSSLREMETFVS
Measurement Type: log10 of IC50 (log10 of the value in nM)
Units before log transform: nM; reported quantity: IC50; transform: log10.

Please review the following examples before continuing.
CCCc1nc(CC)c(C(=O)OCCCSc2ccccc2)n1Cc1ccc(-c2ccccc2S(=O)(=O)NC(=O)OCCC(C)C)cc1F : 0.30
CCCc1nc(CC)c(C(=O)OCC(=O)c2ccccc2)n1Cc1ccc(-c2ccccc2S(=O)(=O)NC(=O)OCCC(C)C)cc1F : 0.30
CCCc1nc(CC)c(C(=O)OCCCS(=O)(=O)c2ccccc2)n1Cc1ccc(-c2ccccc2S(=O)(=O)NC(=O)OCCC(C)C)cc1F : 0.30
CCCc1nc(CC)c(C(=O)OCc2ccccc2Sc2ccccc2)n1Cc1ccc(-c2ccccc2S(=O)(=O)NC(=O)OCCC(C)C)cc1F : 0.30
CCCOC(=O)NS(=O)(=O)c1ccccc1-c1ccc(Cn2c(CCC)nc(CC)c2C(=O)OCc2cccc(C(=O)c3ccccc3)c2)c(F)c1 : 1.00

Record log10 of IC50 per entry; entries follow.
1. CCCc1nc(CC)c(C(=O)OCCC(=O)Nc2ccccc2)n1Cc1ccc(-c2ccccc2S(=O)(=O)NC(=O)OCCC(C)C)cc1F
2. CCCc1nc(CC)c(C(=O)OCCCC(=O)c2ccccc2)n1Cc1ccc(-c2ccccc2S(=O)(=O)NC(=O)OCCC(C)C)cc1F
3. CCCc1nc(CC)c(C(=O)OCCCOc2ccccc2)n1Cc1ccc(-c2ccccc2S(=O)(=O)NC(=O)OCCC(C)C)cc1F
4. CCCCOC(=O)NS(=O)(=O)c1ccccc1-c1ccc(Cn2c(CCC)nc(CC)c2C(=O)NCCCOc2ccccc2)c(F)c1

1. 0.48
2. 0.70
3. 0.30
4. 1.30

Below are 3 molecules. Give each one its log10 of IC50.
1. CCCc1nc(CC)c(C(=O)OCCCOCc2ccccc2)n1Cc1ccc(-c2ccccc2S(=O)(=O)NC(=O)OCCC(C)C)cc1F
2. CCCCCCCOC(=O)NS(=O)(=O)c1ccccc1-c1ccc(Cn2c(CCC)nc(CC)c2C(=O)OCc2ccccc2OC)c(F)c1
3. CCCOC(=O)NS(=O)(=O)c1ccccc1-c1ccc(Cn2c(CCC)nc(CC)c2C(=O)OCc2ccccc2-c2ccsc2)c(F)c1

[0.30, 1.00, 1.30]
